Target: T1, human TIGIT protein (human, UniProt Q495A1 22-141, limits assumed)
T1 construct: Recombinant protein (Genentech) used in ELISA screening and as SPR analyte; also called TIGIT antigen
T1 sequence: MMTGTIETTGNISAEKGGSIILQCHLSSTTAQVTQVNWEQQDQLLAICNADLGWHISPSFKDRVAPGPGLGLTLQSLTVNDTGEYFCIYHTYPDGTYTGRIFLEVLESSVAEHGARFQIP
Assay: SPR, captured mAb
PROPERTY_NAME: pKd
Here pKd is given on a logarithmic scale as minus log10 of the concentration in mol/L.

Entry h15C8.L1H7 (antibody, V domains shown, VH: T71R against h15C8.L1H1; FR/HVR pieces) VH: EVQLVQSGAEVKKPGASVKVSCKASGYTFTEHSIYWLRQAPGQRLEIIGRIDPKNGRTYFVDKFKNRATLTRDTSASTAYMELSSLRSEDTAVYFCARIDGFYFDFWGQGTLVTVSS VL: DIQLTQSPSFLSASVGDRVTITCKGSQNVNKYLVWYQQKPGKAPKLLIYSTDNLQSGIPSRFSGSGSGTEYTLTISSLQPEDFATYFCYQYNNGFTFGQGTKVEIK , pKd reported as 9.01

Entry h15C8.L1H6 (antibody, V domains shown, VH: L69I (printed L691) against h15C8.L1H1; FR/HVR pieces) VH: EVQLVQSGAEVKKPGASVKVSCKASGYTFTEHSIYWLRQAPGQRLEIIGRIDPKNGRTYFVDKFKNRATITTDTSASTAYMELSSLRSEDTAVYFCARIDGFYFDFWGQGTLVTVSS VL: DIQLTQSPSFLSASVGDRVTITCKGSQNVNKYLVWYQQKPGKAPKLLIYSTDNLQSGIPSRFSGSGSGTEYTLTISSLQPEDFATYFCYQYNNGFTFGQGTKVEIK , pKd reported as 9.26

Entry h7E7.L1H5 (antibody, V domains shown, VH: L69I (printed L691) against h7E7.L1H1; FR/HVR pieces) VH: EVQLVQSGAEVKKPGASVKVSCKASGYTFTEYSIYWVRQAPGQRLEIIGRIDPKNGRTYYVDKFKNRATITADTSASTAYMELSSLRSEDTAVYFCTRIYGFYFDFWGQGTLVTVSS VL: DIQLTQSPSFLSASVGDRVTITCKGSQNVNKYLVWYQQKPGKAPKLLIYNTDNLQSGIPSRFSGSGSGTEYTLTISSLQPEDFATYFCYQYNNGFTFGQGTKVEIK , pKd reported as 9.40
